A collection of molecules and their measured inhibition at 1 µM
# target_of_assay: FAAH (Mus musculus (Mouse), UniProt O08914)
# Sequence (O08914 whole entry): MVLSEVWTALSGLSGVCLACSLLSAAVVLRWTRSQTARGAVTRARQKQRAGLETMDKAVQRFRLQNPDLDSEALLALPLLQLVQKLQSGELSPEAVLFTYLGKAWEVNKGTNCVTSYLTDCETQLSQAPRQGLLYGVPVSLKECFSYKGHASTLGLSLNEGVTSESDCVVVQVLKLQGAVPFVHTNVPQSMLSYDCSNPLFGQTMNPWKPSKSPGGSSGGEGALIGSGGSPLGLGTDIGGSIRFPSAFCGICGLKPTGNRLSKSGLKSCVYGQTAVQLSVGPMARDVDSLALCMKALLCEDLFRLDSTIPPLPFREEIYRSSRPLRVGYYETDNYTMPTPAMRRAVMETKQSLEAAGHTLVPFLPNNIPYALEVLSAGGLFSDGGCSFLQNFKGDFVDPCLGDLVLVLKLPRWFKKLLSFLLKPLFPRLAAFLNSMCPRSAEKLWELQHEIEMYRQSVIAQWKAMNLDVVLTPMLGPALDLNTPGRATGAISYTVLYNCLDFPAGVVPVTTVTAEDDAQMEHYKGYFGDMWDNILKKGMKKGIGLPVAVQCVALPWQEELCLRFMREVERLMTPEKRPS
# experiment_summary: In vitro competitive activity-based protein profiling, mouse proteomes (brain membrane fraction or cell lysates)
# Assay type: biochemical
# run_parameters: mouse proteome, read-out: FAAH % inh. 1 μM (mouse)

CS(=O)(=O)Nc1ccn(C(=O)N2CCC(Oc3ccc(C(F)(F)F)nc3N3CCCC3)CC2)n1 [Example 95]	0 to 25%

INPUT: Please give the measured inhibition at 1 µM for this molecule: CS(=O)(=O)Nc1ccn(C(=O)N2CCC3(CCCN3Cc3ccc(C(F)(F)F)cc3NCCCC(=O)O)CC2)n1 [Example 1]
OUTPUT: 0 to 25%

INPUT: Check CC(=O)Nc1ccn(C(=O)N2CCN(Cc3ccc(N4CC5COCC5C4)cc3C(F)(F)F)CC2)n1 (stereo not drawn) [Example 22] too.
OUTPUT: > 75%

INPUT: Check CC(=O)Nc1ccn(C(=O)N2CC3CN(Cc4cccc(Oc5ccccc5Cl)c4)CC3C2)n1 (stereo not drawn) [Example 18] too.
OUTPUT: > 75%

INPUT: Check CN(Cc1ccc(C(F)(F)F)cc1NCC(=O)O)C1(C)CCN(C(=O)n2ccc(NS(C)(=O)=O)n2)CC1 [Example 102] too.
OUTPUT: 0 to 25%

INPUT: Check C[C@@H]1CN(C(=O)n2ccc(NS(C)(=O)=O)n2)CCN1Cc1ccc(Cl)c(N2CC3COCC3C2)c1 (stereo partly drawn) [Example 133] too.
OUTPUT: 0 to 25%

INPUT: Check CS(=O)(=O)Nc1ccn(C(=O)N2CCN(Cc3cc4c(Cl)cccc4s3)CC2)n1 [Example 67] too.
OUTPUT: 25 to 50%

INPUT: Check CC(=O)Nc1ccn(C(=O)N2CCC3(CCCN3Cc3cc4cc(C(N)=O)ccc4[nH]3)CC2)n1 [Example 14] too.
OUTPUT: 0 to 25%

INPUT: Check CS(=O)(=O)Nc1ccn(C(=O)N2CCN(Cc3ccc(Cl)c(N4CCCC45CC5)c3)CC2)n1 [Example 12] too.
OUTPUT: 0 to 25%

INPUT: Check C[C@@H]1C[C@H](N(C)Cc2ccc(Cl)c(N3CC4COCC4C3)c2)CCN1C(=O)n1ccc(NS(C)(=O)=O)n1 (stereo partly drawn) [Example 27] too.
OUTPUT: 0 to 25%

INPUT: Check CC(=O)Nc1ccn(C(=O)N2CC3CN(Cc4cc(N5CCOCC5)cc(C(F)(F)F)c4)CC3C2)n1 (stereo not drawn) [Example 166] too.
OUTPUT: > 75%

INPUT: Check CS(=O)(=O)Nc1ccn(C(=O)N2CCC3(CCN(Cc4ccc(C(F)(F)F)cc4N4C5CCC4COC5)C3)CC2)n1 [Example 74] too.
OUTPUT: 0 to 25%

INPUT: Check CS(=O)(=O)Nc1ccn(C(=O)N2CCC3(CCN(Cc4ccc(N5CCCC5)cc4C(F)(F)F)C3)CC2)n1 [Example 48] too.
OUTPUT: 0 to 25%

INPUT: Check CS(=O)(=O)Nc1ccn(C(=O)N2CCN(Cc3ccc(Cl)c(N4C[C@H]5C[C@@H]4CO5)c3)CC2)n1 [Example 157] too.
OUTPUT: 0 to 25%

INPUT: Check CS(=O)(=O)Nc1ccn(C(=O)N2CCN(Cc3ccc(C(F)(F)F)c(N4CC[C@H](F)C4)c3)CC2)n1 [Example 119] too.
OUTPUT: 0 to 25%

INPUT: Check CS(=O)(=O)Nc1ccn(C(=O)N2CCN(Cc3ccc(Cl)c(N4CC5(CCOCC5)C4)c3)CC2)n1 [Example 8] too.
OUTPUT: 0 to 25%

INPUT: Check CN(Cc1ccc(C(F)(F)F)nc1N1CCCC1)C1(C)CCN(C(=O)n2ccc(NS(C)(=O)=O)n2)CC1 [Example 91] too.
OUTPUT: 50 to 75%

INPUT: Check CC(=O)Nc1ccn(C(=O)N2CCC3(CCCN3Cc3cc4cc(Cl)ccc4s3)CC2)n1 [Example 39] too.
OUTPUT: 50 to 75%

====

# target_of_assay: FAAH (Mus musculus (Mouse), UniProt O08914)
# experiment_summary: In vitro competitive activity-based protein profiling, mouse proteomes (brain membrane fraction or cell lysates)
# Type: biochemical
# run_parameters: mouse proteome, read-out: FAAH % inh. 1 μM (mouse)
observed_property: inhibition at 1 µM

CC1CN(C(=O)n2ccc(NS(C)(=O)=O)n2)CCN1Cc1ccc(C(F)(F)F)cc1N1CCCC1 (stereo not shown)	0 to 25%
CC(=O)Nc1ccn(C(=O)N2CCC3(CCN(Cc4ccc(C(N)=O)c(C(F)(F)F)c4)C3)CC2)n1	0 to 25%
CS(=O)(=O)Nc1ccn(C(=O)N2CCN(Cc3nc4ccccc4s3)CC2)n1	0 to 25%

INPUT: Please give the measured inhibition at 1 µM for this compound: CC(=O)Nc1ccn(C(=O)N2CC3CN(Cc4cccc(Oc5ccccc5)c4)CC3C2)n1 (stereo not shown)
OUTPUT: > 75%

====

# target_of_assay: FAAH (Mus musculus (Mouse))
# experiment_summary: In vitro competitive activity-based protein profiling, mouse proteomes (brain membrane fraction or cell lysates)
# Format: biochemical
# run_parameters: mouse proteome, read-out: FAAH % inh. 1 μM (mouse)
A collection of compounds and their measured inhibition at 1 µM

INPUT: Please give the measured inhibition at 1 µM for this compound: CC(=O)Nc1ccn(C(=O)N2CC3CN(Cc4cccc(C(F)(F)F)c4)CC3C2)n1 (centres unmarked)
OUTPUT: > 75%

INPUT: Check "CC(=O)Nc1ccn(C(=O)N2CCN(Cc3ccc(C(N)=O)c(C(F)(F)F)c3)CC2)n1" too.
OUTPUT: 0 to 25%

INPUT: Check "CC(=O)Nc1ccn(C(=O)N2CCC3(CCCN3C(=O)c3ccc(Cl)c(C)c3)CC2)n1" too.
OUTPUT: 0 to 25%

====

A collection of compounds and their measured IC50
# target_of_assay: MAGL (Homo sapiens (Human))
# experiment_summary: In vitro competitive activity-based protein profiling, human proteomes (prefrontal cortex or PC3 cell membrane fractions)
# Format: biochemical
# run_parameters: human proteome

CC(=O)Nc1ccn(C(=O)N2CCC3(CCCN3Cc3cc4cc(Cl)ccc4[nH]3)CC2)n1	< 0.1 µM
CS(=O)(=O)Nc1ccn(C(=O)N2CCC3(CCN(Cc4ccc(Cl)cc4N4CCCC4)C3)CC2)n1	< 0.1 µM
C[C@@H](c1ccc(Cl)c(N2CCC(F)CC2)c1)N1CCN(C(=O)n2ccc(NS(C)(=O)=O)n2)CC1	< 0.1 µM

// next item, IC50 requested
INPUT: Please give the measured IC50 for this compound: "CC(=O)Nc1ccn(C(=O)N2CCC3(CCCN3C(=O)c3ccc(Cl)c(C4CC4)c3)CC2)n1"
OUTPUT: < 0.1 µM

====

# target_of_assay: MAGL (Homo sapiens (Human), UniProt Q99685)
# Sequence (Q99685 whole entry): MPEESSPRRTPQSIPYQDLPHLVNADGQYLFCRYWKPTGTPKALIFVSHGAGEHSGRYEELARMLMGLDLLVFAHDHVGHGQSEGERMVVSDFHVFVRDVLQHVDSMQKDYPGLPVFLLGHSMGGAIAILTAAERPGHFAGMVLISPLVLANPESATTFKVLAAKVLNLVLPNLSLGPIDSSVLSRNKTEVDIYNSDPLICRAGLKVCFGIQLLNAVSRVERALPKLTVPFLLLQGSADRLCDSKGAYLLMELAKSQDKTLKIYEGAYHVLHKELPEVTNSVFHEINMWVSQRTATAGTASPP
# experiment_summary: In vitro competitive activity-based protein profiling, human proteomes (prefrontal cortex or PC3 cell membrane fractions)
# Assay type: biochemical
# run_parameters: 1 μM, human proteome; read-out: MAGL % inh. 1 μM (human)
observed_property: inhibition at 1 µM

Known results for molecules:
CS(=O)(=O)Nc1ccn(C(=O)N2CC3CN(Cc4ccc(Oc5ccc(Cl)cc5)cc4)CC3C2)n1 (stereo not shown)	25 to 50%
CS(=O)(=O)Nc1ccn(C(=O)N2CCC(N(Cc3ccc(C(F)(F)F)cc3N3CCCC3)C3CC3)CC2)n1	> 75%

INPUT: Please give the measured inhibition at 1 µM for this molecule: "CC(=O)Nc1ccn(C(=O)N2CCC(C)(N(C)Cc3cc(C(F)(F)F)cc(C4(C(=O)O)CCCC4)c3)CC2)n1"
OUTPUT: > 75%

INPUT: Check "CC(=O)Nc1ccn(C(=O)N2CCC3(CCCN3C(=O)c3ccc(Cl)c(C4CC4)c3)CC2)n1" too.
OUTPUT: > 75%

====

A collection of molecules and their measured inhibition at 1 µM
# target_of_assay: FAAH (Mus musculus (Mouse), UniProt O08914)
# experiment_summary: In vitro competitive activity-based protein profiling, mouse proteomes (brain membrane fraction or cell lysates)
# Type: biochemical
# run_parameters: mouse proteome, read-out: FAAH % inh. 1 μM (mouse)

Known results for molecules:
CC(=O)Nc1ccn(C(=O)N2CC3CN(Cc4ccc(Oc5ccc(Cl)cc5)cc4)CC3C2)n1 (stereo not shown) [Example 44]	> 75%
CC(=O)N(Cc1ccc(C(F)(F)F)cc1N1CCCC1)C1(C)CCN(C(=O)n2ccc(NS(C)(=O)=O)n2)CC1 [Example 103]	0 to 25%
CS(=O)(=O)Nc1ccn(C(=O)N2CCC3(CCN(Cc4ccc(C(F)(F)F)cc4N4CCC(F)CC4)CC3)C2)n1 [Example 60]	0 to 25%

// next item, inhibition at 1 µM requested
INPUT: Please give the measured inhibition at 1 µM for this molecule: CC(=O)Nc1ccn(C(=O)N2CCC3(CCCN3C(=O)c3ccc(C#N)c(C)c3)CC2)n1 [Example 85]
OUTPUT: 0 to 25%
